# Tested on: anti-anti-dsDNA (anti-Id) isolated from IVIG
# METHOD SUMMARY: Direct binding of anti-Id to the synthetic peptides by ELISA
# Parameters: species or system human
# CONDITION DETAILS: Table 2; anti-Id 5 μg/ml
READOUT KIND: binding of anti-Id to peptide (OD at 405 nm)

Reference set, count: 3
> print(dat)
          substance  measured.value
1   KHETTET [Pep 1]           1.329
2  PPQKHLL [Pep 14]           0.611
3  DWLYSRS [Pep 13]           0.387

1. KYKRKYP [Pep 15]
2. PLPDWRV [Pep 12]
# query: argmin of binding of anti-Id to peptide (OD at 405 nm) over 1 and 2 In your reply, give the label of the chosen option.
1
(1: 0.117, 2: 0.273)

---

# Tested on: anti-anti-dsDNA (anti-Id) isolated from IVIG
# METHOD SUMMARY: Direct binding of anti-Id to the synthetic peptides by ELISA
# Parameters: species or system human
# CONDITION DETAILS: Table 2; anti-Id 1 μg/ml
READOUT KIND: binding of anti-Id to peptide (OD at 405 nm)

Reference set, count: 3
> print(dat)
          substance  measured.value
1  KYKRKYP [Pep 15]           0.049
2   KHETTET [Pep 1]           0.046
3  PPQKHLL [Pep 14]           0.113

I. DWLYSRS [Pep 13]
II. PLPDWRV [Pep 12]
# query: argmin of binding of anti-Id to peptide (OD at 405 nm) over I and II In your reply, give the label of the chosen option.
II

---

# System: anti-anti-dsDNA (anti-Id) isolated from IVIG
# METHOD SUMMARY: Direct binding of anti-Id to the synthetic peptides by ELISA
# Parameters: species or system human
# CONDITION DETAILS: Table 2; anti-Id 2.5 μg/ml
# Procedure: The binding of anti-Id to the peptides was tested by ELISA. ELISA plates were coated by 10 ug/ml of peptides in PBS overnight at 4° C. The plates were blocked with 3% BSA for 1hr at 37° C. Anti-Id was added at different concentrations. IgG purified from one donor was used as negative control. The binding of the immunoglobulin was probed with goat anti-human IgG conjugated to alkaline phosphatase and the appropriate substrate. Between each step, extensive washings were performed with 0.05% PBS-Tween. […]
READOUT KIND: binding of anti-Id to peptide (OD at 405 nm)

Reference set, count: 3
> print(dat)
          substance  measured.value
1   KHETTET [Pep 1]           0.269
2  PLPDWRV [Pep 12]           0.072
3  DWLYSRS [Pep 13]           0.099

1. PPQKHLL [Pep 14]
2. KYKRKYP [Pep 15]
# query: argmin of binding of anti-Id to peptide (OD at 405 nm) over 1 and 2 In your reply, give the label of the chosen option.
2

---

# System: control IgG (IgG purified from one donor)
# METHOD SUMMARY: Direct binding ELISA, negative control immunoglobulin
# Parameters: species or system human
# CONDITION DETAILS: Table 2; control IgG 1 μg/ml
READOUT KIND: binding of control IgG to peptide (OD at 405 nm)

Reference set, count: 2
> print(dat)
          substance  measured.value
1  DWLYSRS [Pep 13]           0.069
2  PLPDWRV [Pep 12]           0.043

A. KHETTET [Pep 1]
B. KYKRKYP [Pep 15]
C. PPQKHLL [Pep 14]
With regard to binding of control IgG to peptide (OD at 405 nm), arrange the entries in ascending order, please. Put the labels in the requested order and write them down.
A, B, C
